Please go through the items and note down their pKd.
Target: T1, HCoV-229E S ectodomain (17–1115 aa), 229E S trimer (human coronavirus 229E, UniProt P15423 17-1115)
T1 chain: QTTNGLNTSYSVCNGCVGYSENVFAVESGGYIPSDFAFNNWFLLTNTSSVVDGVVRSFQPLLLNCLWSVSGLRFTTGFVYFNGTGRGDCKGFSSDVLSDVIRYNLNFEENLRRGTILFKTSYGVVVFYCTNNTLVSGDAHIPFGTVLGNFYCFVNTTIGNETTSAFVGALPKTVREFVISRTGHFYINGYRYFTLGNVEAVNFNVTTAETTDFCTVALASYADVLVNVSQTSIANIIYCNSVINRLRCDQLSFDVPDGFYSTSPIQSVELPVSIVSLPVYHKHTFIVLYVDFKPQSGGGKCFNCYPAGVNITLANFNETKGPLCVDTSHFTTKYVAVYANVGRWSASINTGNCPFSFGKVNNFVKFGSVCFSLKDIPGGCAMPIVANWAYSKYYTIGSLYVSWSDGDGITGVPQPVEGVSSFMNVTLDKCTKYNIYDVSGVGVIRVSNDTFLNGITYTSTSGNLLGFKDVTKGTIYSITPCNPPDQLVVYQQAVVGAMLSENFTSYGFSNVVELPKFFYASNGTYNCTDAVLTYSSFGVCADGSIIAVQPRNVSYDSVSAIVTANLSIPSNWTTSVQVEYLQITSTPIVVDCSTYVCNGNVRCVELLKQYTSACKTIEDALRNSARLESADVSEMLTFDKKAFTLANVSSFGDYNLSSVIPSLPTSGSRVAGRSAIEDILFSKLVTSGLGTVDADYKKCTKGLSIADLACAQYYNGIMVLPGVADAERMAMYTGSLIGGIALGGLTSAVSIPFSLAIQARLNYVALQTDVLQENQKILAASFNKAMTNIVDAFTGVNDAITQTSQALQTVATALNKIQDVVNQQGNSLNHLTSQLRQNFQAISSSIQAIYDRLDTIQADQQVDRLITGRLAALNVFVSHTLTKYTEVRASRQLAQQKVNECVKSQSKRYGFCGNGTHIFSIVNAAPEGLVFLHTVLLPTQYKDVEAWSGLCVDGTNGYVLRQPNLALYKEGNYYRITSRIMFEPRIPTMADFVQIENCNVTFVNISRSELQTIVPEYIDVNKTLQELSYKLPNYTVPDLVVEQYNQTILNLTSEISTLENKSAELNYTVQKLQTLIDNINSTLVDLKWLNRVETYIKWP
Test: SPR
Please express pKd as -log10 of the molar concentration.

pKd in this record for Fab D12 (Fab, V domains shown) VH: EVQLVESGGGLVQPGGSLRLSCAASGFNLSSYSMHWVRQAPGKGLEWVAYISPYYSYTSYADSVKGRFTISADTSKNTAYLQMNSLRAEDTAVYYCARVWYHSYPGWVPWGSWAFDYWGQGTLVTVSS VL: DIQMTQSPSSLSASVGDRVTITCRASQSVSSAVAWYQQKPGKAPKLLIYSASSLYSGVPSRFSGSRSGTDFTLTISSLQPEDFATYYCQQAYYSPITFGQGTKVEIK : 8.41

// field: pKd; key: Fab A01 (Fab, V domains shown) VH: EVQLVESGGGLVQPGGSLRLSCAASGFNISSSYIHWVRQAPGKGLEWVASIYSYYSSTSYADSVKGRFTISADTSKNTAYLQMNSLRAEDTAVYYCARGGYAFYGYGSPHSWYALDYWGQGTLVTVSS VL: DIQMTQSPSSLSASVGDRVTITCRASQSVSSAVAWYQQKPGKAPKLLIYSASSLYSGVPSRFSGSRSGTDFTLTISSLQPEDFATYYCQQWWPGSWGPITFGQGTKVEIK ; value = 7.49
